# Assay System: Ephrin type-B receptor 1 (Homo sapiens)
# Sequence (whole entry): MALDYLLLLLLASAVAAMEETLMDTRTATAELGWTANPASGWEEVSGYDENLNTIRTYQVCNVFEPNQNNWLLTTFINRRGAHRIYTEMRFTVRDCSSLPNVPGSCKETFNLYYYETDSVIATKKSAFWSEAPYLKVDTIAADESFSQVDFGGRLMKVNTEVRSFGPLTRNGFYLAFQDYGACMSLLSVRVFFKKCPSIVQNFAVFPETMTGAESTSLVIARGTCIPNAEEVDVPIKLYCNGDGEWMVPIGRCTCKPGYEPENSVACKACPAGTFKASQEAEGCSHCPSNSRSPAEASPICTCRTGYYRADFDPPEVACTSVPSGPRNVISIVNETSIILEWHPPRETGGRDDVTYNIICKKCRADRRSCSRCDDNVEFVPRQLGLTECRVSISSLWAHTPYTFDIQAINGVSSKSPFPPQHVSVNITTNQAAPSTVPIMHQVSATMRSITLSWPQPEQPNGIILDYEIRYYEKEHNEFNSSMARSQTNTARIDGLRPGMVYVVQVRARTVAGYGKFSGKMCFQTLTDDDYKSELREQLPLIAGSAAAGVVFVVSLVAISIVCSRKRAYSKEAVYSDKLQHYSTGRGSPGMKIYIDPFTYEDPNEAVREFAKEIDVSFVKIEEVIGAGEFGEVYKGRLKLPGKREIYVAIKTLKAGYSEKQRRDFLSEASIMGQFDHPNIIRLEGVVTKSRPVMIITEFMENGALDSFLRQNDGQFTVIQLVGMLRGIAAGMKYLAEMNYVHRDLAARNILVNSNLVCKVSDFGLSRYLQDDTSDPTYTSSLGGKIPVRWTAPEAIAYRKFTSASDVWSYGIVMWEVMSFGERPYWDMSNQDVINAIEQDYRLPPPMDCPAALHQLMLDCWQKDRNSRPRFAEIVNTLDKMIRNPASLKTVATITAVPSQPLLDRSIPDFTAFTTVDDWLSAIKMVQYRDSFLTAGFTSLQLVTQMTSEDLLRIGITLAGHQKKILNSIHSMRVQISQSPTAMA
# Test Parameters: at 1 µM
Measured Metric: residual activity (%)

* COc1ccc(C(=O)Nc2sc3c(c2C(N)=O)CCCC3)cc1OC | 83
* COc1cc2ncnc(Nc3ccc(Oc4ccccc4)cc3)c2cc1OC | 110
* Cc1ccc(S(=O)(=O)/C=C/C#N)cc1 | 93
* O=C(Nc1cccc(Nc2cc(Nc3cccc(C(F)(F)F)c3)ncn2)c1)C1CC1 | 98
* O=C(Nc1cccc(Nc2nccc(Nc3cccc(C(F)(F)F)c3)n2)c1)C1CC1 | 62
* C[C@@H](N)[C@H]1CC[C@H](C(=O)Nc2ccncc2)CC1 | 101
* O=C1Nc2ccc(Br)cc2/C1=C\c1cc2c([nH]1)CCCC2 | 101
* Ic1cccc(CSc2nnc(-c3ccncc3)o2)c1 | 95
* O=[N+]([O-])c1ccc(-c2nc(-c3ccc(F)cc3)c(-c3ccncc3)[nH]2)cc1 | 103
* CCN(CC)C(=O)c1ccc(Nc2nc(OCC3CCCCC3)c3nc[nH]c3n2)cc1 | 68
* c1ccc(-c2n[nH]c3c2oc2ccccc23)cc1 | 99
* Cc1cncc2cccc(S(=O)(=O)N3CCCN(C(=O)CN)C[C@H]3C)c12 | 75
* N#Cc1cnc2cnc(NCc3cccnc3)cc2c1Nc1ccc(F)c(Cl)c1 | 100
* O=c1c2ccccc2[nH]c(=S)n1CCN1CCC(=C(c2ccc(F)cc2)c2ccc(F)cc2)CC1 | 90
* O=C1NC(=O)c2c1c1c3ccccc3[nH]c1c1[nH]c3cc(Br)ccc3c21 | 106
* COc1cc2ncnc(Nc3ccc(O)c(Br)c3)c2cc1OC | 62
* Cn1nc2c3c(cccc31)C(=O)c1ccccc1-2 | 94
* Nc1cccc(-c2cc3c(Oc4cccc(O)c4)ncnc3[nH]2)c1 | 7
* Cc1nc2cc3nc(-c4cccs4)cnc3cc2n1C | 103
* c1ccc2c(-c3ccncc3)c[nH]c2c1 | 108
* Cn1cc(/C=C2\C(=O)Nc3ccc(S(N)(=O)=O)cc32)c2ccccc21 | 66
* Oc1n[nH]c2nnc(-c3c(-c4ccccc4)nn4ccccc34)cc12 | 97
* Cc1ccc(NC2=CC(=O)c3sc(C)nc3C2=O)cc1 | 81
